Test system: AR 1.0 cells
measurementDescription: Potentiation index with doxorubicin titration
Assay type: cell-based, mouse
studyConditions: Table C1, RMA 10 nM
Please mark satisfied if the recorded Potentiation Index at RMA concentration 10 nM is equal to or greater than 2, and not satisfied if it falls below.

compound: COc1cc2c(cc1OC)CN(CCc1ccc(NC(=O)c3sccc3NC(=O)c3cnc4ccccc4n3)cc1)CC2 [compound 9597]
groupLabel: satisfied
--
compound: Cc1ccc(CN(C)CCc2ccc(NC(=O)c3ccccc3NC(=O)c3cnc4ccccc4c3)cc2)cc1C [compound 9631]
groupLabel: not satisfied
--
compound: COc1cc2c(cc1OC)CN(CCc1ccc(NC(=O)c3sccc3NC(=O)c3cnc4ccccc4c3)cc1)CC2 [compound 9594]
groupLabel: satisfied
--
compound: COc1cc(CN(C)CCc2ccc(NC(=O)c3ccccc3NC(=O)c3cnc4ccccc4c3)cc2)ccc1OC(C)C [compound 9646]
groupLabel: not satisfied
--
compound: COc1cc(CN(C)CCc2ccc(NC(=O)c3ccccc3NC(=O)c3cnc4ccccc4c3)cc2)ccc1O [compound 9649]
groupLabel: satisfied
--
compound: COc1cc2c(cc1OC)CN(CCc1ccc(NC(=O)c3c(C)csc3NC(=O)c3cnc4ccccc4c3)cc1)CC2 [compound 9609]
groupLabel: not satisfied

---

System: AR 1.0 cells
measurementDescription: Potentiation index with doxorubicin titration
Format: cell-based, mouse
studyConditions: Table C2, RMA 300 nM
Give rule met when the value for Potentiation Index at RMA concentration 300 nM is at least 40. Give rule not met when it is less.

structureNotation: COc1cc2c(cc1OC)CN(CCNC(=O)c1ccccc1NC(=O)c1ccc(-c3ccccc3)cc1)CC2
groupLabel: rule not met
//
structureNotation: COc1cc2c(cc1OC)CN(CCc1ccc(NC(=O)c3ccccc3NC(=O)c3ccc(Cl)cc3)cc1)CC2
groupLabel: rule met
//
structureNotation: COc1cc2c(cc1OC)CN(CCc1ccc(NC(=O)c3ccccc3NC(=O)c3cccc4ccccc34)cc1)CC2
groupLabel: rule not met
//
structureNotation: COc1cc2c(cc1OC)CN(CCc1ccc(NC(=O)c3ccccc3NC(=O)c3ccccc3O)cc1)CC2
groupLabel: rule met
//
structureNotation: COc1cc2c(cc1OC)CN(CCc1ccc(NC(=O)c3ccccc3NC(=O)c3cccc(Cl)c3)cc1)CC2
groupLabel: rule met
//
structureNotation: COc1cc2c(cc1OC)CN(CCCNC(=O)c1ccccc1NC(=O)c1ccc(C3CCCCC3)cc1)CC2
groupLabel: rule not met

---

System: AR 1.0 cells
measurementDescription: Potentiation of doxorubicin toxicity: proliferation assay (sulphorhodamine B)
Format: cell-based, mouse
studyConditions: with fixed doxorubicin 0.34 μm; four days; 5760 min; read-out: Toxicity with Cytotoxic Agent (IC50)
pIC50: −log10 of the molar value.
# pIC50 per entry

molecule: COc1cc2c(cc1OC)CN(CCNC(=O)c1cc(Cl)ccc1NC(=O)c1ccc(C(C)C)cc1)CC2 [compound 9354]
pIC50: 6.82
--
molecule: COc1cc2c(cc1OC)CN(CCc1ccc(NC(=O)c3ccc(F)cc3NC(=O)c3cnc4ccccc4c3)cc1)CC2 [compound 9571]
pIC50: 9.10
--
molecule: COc1cc2c(cc1OC)CN(CCc1ccc(NC(=O)c3ccccc3NC(=O)c3ccccc3C)cc1)CC2 [compound 9497]
pIC50: 7.10
--
molecule: COc1cc2c(cc1OC)CN(CCNC(=O)c1ccccc1NC(=O)c1ccc3ccccc3c1)CC2 [compound 9295]
pIC50: 6.22
--
molecule: CCCCCc1ccc(C(=O)Nc2ccccc2C(=O)NCCN2CCc3cc(OC)c(OC)cc3C2)cc1 [compound 9395]
pIC50: 6.82
--
molecule: COc1cc2c(cc1OC)CN(CCNC(=O)c1ccccc1NC(=O)c1ccc(C3CCCCC3)cc1)CC2 [compound 9331]
pIC50: 7.40
--
molecule: COc1cc2c(cc1OC)CN(CCc1ccc(NC(=O)c3ccccc3NC(=O)c3cccc(C)c3)cc1)CC2 [compound 9503]
pIC50: 7.05
--
molecule: COc1cc2c(cc1OC)CN(CCc1ccc(NC(=O)c3ccccc3NC(=O)c3ccccc3O)cc1)CC2 [compound 9535]
pIC50: 7.82
--
molecule: COc1cc2c(cc1OC)CN(CCc1ccc(NC(=O)c3ccccc3NC(=O)c3ccc(Cl)cc3)cc1)CC2 [compound 9496]
pIC50: 7.52
--
molecule: COc1cc2c(cc1OC)CN(CCc1ccc(NC(=O)c3ccc([N+](=O)[O-])cc3NC(=O)c3cnc4ccccc4n3)cc1)CC2 [compound 9541]
pIC50: 8.22
--
molecule: COc1cc2c(cc1OC)CN(CCc1ccc(NC(=O)c3ccccc3NC(=O)c3cccc(F)c3)cc1)CC2 [compound 9500]
pIC50: 8.05
--
molecule: COc1cc2c(cc1OC)CN(CCNC(=O)c1ccc(N)cc1NC(=O)c1ccc(C(C)C)cc1)CC2 [compound 9435]
pIC50: 6.40
--
molecule: COc1cc2c(cc1OC)CN(CCc1ccc(NC(=O)c3ccccc3NC(=O)c3cccnc3)cc1)CC2 [compound 9482]
pIC50: 6.66
--
molecule: COc1cc2c(cc1OC)CN(CCNC(=O)c1ccccc1NC(=O)c1cnc3ccccc3n1)CC2 [compound 9347]
pIC50: 6.22
--
molecule: COc1cc2c(cc1OC)CN(CCNC(=O)c1ccccc1NC(=O)c1ccc(Cc3ccccc3)cc1)CC2 [compound 9442]
pIC50: 7.30
